- Test system: MS2 coat protein
- measurement notes: apparent Kd, MS2 coat protein; higher = weaker binding; RNA-MaP array
- assay setup: ligand present: flavin mononucleotide; designed as: ON switch for flavin mononucleotide
Labels assigned by apparent Kd range: band A = under 20 nM, band B = from 20 nM up to 30 nM, band C = 30 nM and over

INSERT INTO results (monomer_sequence, test_target, assigned_class) VALUES
  ('UCCCGACAUGAGGAUCACCCAUGUGGACAGUACACAGGAUAUUAACUCAUUACAAUAGAAUAAGAAGGGUGGUACC', 'MS2 coat protein', 'band C'),
  ('CACGUACAUGAGGAUCACCCAUGUAUGUCCGAAACGCGAGUACAGGAUAUGAUAUGGAGAAGUCUUCAGAAGGGUACAAAUCGC', 'MS2 coat protein', 'band B'),
  ('GGCUUCCCAAGAGGAUAUGCGGUAAUUAUCUACAUGAGGAUCACCCAUGUUUUUAACUCAAGUCCGCAGAAGGCUUAAGGAUAU', 'MS2 coat protein', 'band A'),
  ('UGCUUUUACGGAGGAUAUCUUUGGUCGUUAUGAAGAGAAGGCCGUCCUAACAUGAGGAUCACCCAUGUAUCUCAUUACAGUCUC', 'MS2 coat protein', 'band A'),
  ('UGCUGCUCGAGAGGAUAUACGAAAUGGAACAUGAGGAUCACCCAUGUAUAUCUCCACAAACAGACGUAGAAGGCACAAUAAGGA', 'MS2 coat protein', 'band C'),
  ('UAAAGCUGAAAGAAGGCUCCAUCGCUAGUACUGAGAGGAUAUUUCGUUGUUGACAUGAGGAUCACCCAUGUGGUUCGCCGGGCC', 'MS2 coat protein', 'band B'),
  ('AAGCCACAUGAGGAUCACCCAUGUAAGGGUACCUGAGGAUAUCCGGCGGGACAGAAAGGAGGAGAAGGCAGAUCCA', 'MS2 coat protein', 'band C'),
  ('ACACAUCCACAUGAGGAUCACCCAUGUAAACCGAAAUAGCACUAGGAUAUGGGACAAACAAUUCACCAGAAGGAGUAAAAGAAA', 'MS2 coat protein', 'band B'),
  ('AGCACGAGCGCAGGAUAUGCAUAACCCGUAGCUGCAGAAGGGCGACAUGAGGAUCACCCAUGUAUAUCCAGAACUACAAUCUGA', 'MS2 coat protein', 'band C'),
  ('GAACACCAGAAGAAGGGAGACAUGAGGAUCACCCAUGUUUAAAUACGAAAUAAGGUAAAAGCAACACAGGAUAUUCGGCUCUAC', 'MS2 coat protein', 'band A'),
  ('UGAUUAUACUUUGAGGAUAUACUAGGACUCACAUGAGGAUCACCCAUGUGUGCGGCUAUACGAGCGUAGAAGGCAAAUACUCCGGC', 'MS2 coat protein', 'band A'),
  ('ACAGCAAACGUAGGAUAUGGGAGAACAUGAGGAUCACCCAUGUGGAAGUACGAGUUCGCUACAUACCAGAAGGACGAAAUCUAC', 'MS2 coat protein', 'band C'),
  ('AUUGACUCAGAGAAGGGACUCAACAUGAGGAUCACCCAUGUUCUUUCGAAUAAAGGCUCUUAGGGUCAGGAUAUCUGUACGUAA', 'MS2 coat protein', 'band A'),
  ('GCAUAAGAUCAGAAGGGUAAUUUGUAACAACAUACAGGAUAUGAGGAAACAUGAGGAUCACCCAUGUGAAGCGAAAACAGAAAU', 'MS2 coat protein', 'band A');
